Experiment: Plasma pharmacokinetics, non-compartmental analysis
Type: in vivo, human
Conditions: human, plasma, po, 75 mg/m2, Half-life (median (range)), 75 mg/m^2 oral, Day 21 (repeated doses), N=17
REPORTED METRIC: half-life (h)

{"columns": ["SAMPLE SMILES", "REPORTED METRIC", "NUMBER"],
 "data": [
  ["CC(=O)c1c(C)c2cnc(Nc3ccc(N4CCNCC4)cn3)nc2n(C2CCCC2)c1=O", "half-life", 14.4]
]}

---

Test: Plasma pharmacokinetics, non-compartmental analysis
Type: in vivo, human
Conditions: human, plasma, po, 95 mg/m2, Half-life (median (range)), 95 mg/m^2 oral, Day 21 (repeated doses), N=2
REPORTED METRIC: half-life (h)

{"columns": ["SAMPLE SMILES", "NUMBER"],
 "data": [
  ["CC(=O)c1c(C)c2cnc(Nc3ccc(N4CCNCC4)cn3)nc2n(C2CCCC2)c1=O", 11.3]
]}

---

Experiment: Plasma pharmacokinetics, non-compartmental analysis
Format: in vivo, human
Conditions: human, plasma, po, 95 mg/m2, AUC0-Tlast (median (range)), 95 mg/m^2 oral, Day 1 (single dose), N=6

{"columns": ["SAMPLE SMILES", "READOUT UNIT", "AUC(0-t)"],
 "data": [
  ["CC(=O)c1c(C)c2cnc(Nc3ccc(N4CCNCC4)cn3)nc2n(C2CCCC2)c1=O", "ng·h/mL", 2410]
]}

---

Test: Plasma pharmacokinetics, non-compartmental analysis
Format: in vivo, human
Conditions: human, plasma, po, 50 mg/m2, AUC0-Tlast (median (range)), 50 mg/m^2 oral, Day 21 (repeated doses), N=6

{"columns": ["SAMPLE SMILES", "AUC(0-t)"],
 "data": [
  ["CC(=O)c1c(C)c2cnc(Nc3ccc(N4CCNCC4)cn3)nc2n(C2CCCC2)c1=O", "1230 ng·h/mL"]
]}

---

Assay: Plasma pharmacokinetics, non-compartmental analysis
Assay type: in vivo, human
Details: human, plasma, po, 95 mg/m2, Half-life (median (range)), 95 mg/m^2 oral, Day 1 (single dose), N=6
REPORTED METRIC: half-life (h)

{"columns": ["MOLECULE", "NUMBER"],
 "data": [
  ["CC(=O)c1c(C)c2cnc(Nc3ccc(N4CCNCC4)cn3)nc2n(C2CCCC2)c1=O [palbociclib]", 14.6]
]}

---

Test: Plasma pharmacokinetics, non-compartmental analysis
Type: in vivo, human
Conditions: human, plasma, po, 50 mg/m2, Cmax (median (range)), 50 mg/m^2 oral, Day 1 (single dose), N=7
REPORTED METRIC: Cmax (ng/mL)

{"columns": ["SAMPLE SMILES", "REPORTED METRIC", "READOUT UNIT", "NUMBER"],
 "data": [
  ["CC(=O)c1c(C)c2cnc(Nc3ccc(N4CCNCC4)cn3)nc2n(C2CCCC2)c1=O", "Cmax", "ng/mL", 54.9]
]}

---

Test: Plasma pharmacokinetics, non-compartmental analysis
Format: in vivo, human
Details: human, plasma, po, 50 mg/m2, Half-life (median (range)), 50 mg/m^2 oral, Day 1 (single dose), N=7

{"columns": ["SAMPLE SMILES", "half-life [h]"],
 "data": [
  ["CC(=O)c1c(C)c2cnc(Nc3ccc(N4CCNCC4)cn3)nc2n(C2CCCC2)c1=O", 13]
]}
